System: induction of TAT by dexamethasone in HepG2 cells
Test: HepG2 tyrosine aminotransferase (TAT) assay
Type: cell-based, human
Details: HepG2 cells, challenge of 100 nM dexamethasone; Ki from IC50 by Cheng and Prusoff equation
Experimental: Example 21. HepG2 Tyrosine Aminotransferase (TAT) Assay Glucocorticoid mediated activation of TAT occurs by transactivation of glucocorticoid response elements in the TAT promoter by glucocorticoid receptor agonist complex. TAT activity was measured as outlined in the literature by A. Ali et al., J. Med. Chem., 2004, 47, 2441-2452. HepG2 cells were cultured using MEME media supplemented with 10% (v/v) foetal bovine serum; 2 mM L-glutamine and 1% (v/v) NEAA at 37° C., 5%/95% (v/v) CO2/air. […]
property name: Ki

Consider the following illustrative entries.
>>> meas_value("Cc1ccnc(C(=O)[C@]23Cc4cnn(-c5ccc(F)cc5)c4C=C2CCN(S(=O)(=O)c2cc(C)nn2C)C3)c1 [Example 11BA]")
"< 0.02 µM"
>>> meas_value("O=C(c1cscn1)[C@]12Cc3cnn(-c4ccc(F)cc4)c3C=C1CCN(S(=O)(=O)c1ccc(F)c(F)c1)C2 [Example 11BU]")
"0.02 to 0.1 µM"
>>> meas_value("COc1ccc(S(=O)(=O)N2CCC3=Cc4c(cnn4-c4ccc(F)cc4)C[C@]3(C(=O)c3ccccn3)C2)cc1Cl [Example 11C]")
"0.02 to 0.1 µM"
>>> meas_value("Cc1ccnc(C(=O)[C@]23Cc4cnn(-c5ccc(F)cc5)c4C=C2CCN(S(=O)(=O)c2cc(F)cc(F)c2)C3)c1 [Example 11W]")
"< 0.02 µM"
>>> meas_value("O=C(c1ccnc(N2CCCC2)c1)[C@]12Cc3cnn(-c4ccc(F)cc4)c3C=C1CCN(S(=O)(=O)c1ccc(F)c(F)c1)C2 [Example 11BH]")
"≥ 0.1 µM"
>>> meas_value("O=C(c1nccs1)[C@]12Cc3cnn(-c4ccc(F)cc4)c3C=C1CCN(S(=O)(=O)c1ccc(N3CCCC3)cc1)C2")
"0.02 to 0.1 µM"
>>> meas_value("O=C(c1ccccn1)[C@]12Cc3cnn(-c4ccc(F)cc4)c3C=C1CCN(S(=O)(=O)c1cccc(F)c1)C2")
"< 0.02 µM"
>>> meas_value("O=C(c1ncco1)[C@]12Cc3cnn(-c4ccc(F)cc4)c3C=C1CCN(S(=O)(=O)c1ccc(C(F)(F)F)cc1)C2")
"0.02 to 0.1 µM"

Provide Ki, recorded with induction of TAT by dexamethasone in HepG2 cells, of Cc1cc(C)cc(S(=O)(=O)N2CCC3=Cc4c(cnn4-c4ccc(F)cc4)C[C@]3(C(=O)c3ccccn3)C2)c1 [Example 11N]
< 0.02 µM

Provide Ki, recorded with induction of TAT by dexamethasone in HepG2 cells, of O=C(c1ccccn1)[C@]12Cc3cnn(-c4ccc(F)cc4)c3C=C1CCN(S(=O)(=O)c1ccc(OC(F)F)cc1)C2 [Example 11H]
< 0.02 µM

Provide Ki, recorded with induction of TAT by dexamethasone in HepG2 cells, of Cc1cnc(C(=O)[C@]23Cc4cnn(-c5ccc(F)cc5)c4C=C2CCN(S(=O)(=O)c2ccnn2C)C3)s1 [Example 12V]
0.02 to 0.1 µM

Provide Ki, recorded with induction of TAT by dexamethasone in HepG2 cells, of CCCn1cc(S(=O)(=O)N2CCC3=Cc4c(cnn4-c4ccc(F)cc4)C[C@]3(C(=O)c3cscn3)C2)cn1 [Example 11CZ]
< 0.02 µM

Provide Ki, recorded with induction of TAT by dexamethasone in HepG2 cells, of O=C(c1ccccn1)[C@]12Cc3cnn(-c4ccc(F)cc4)c3C=C1CCN(S(=O)(=O)c1cncc(N3CCCC3)c1)C2 [Example 10B]
< 0.02 µM
